- target entity: HIV-1 gp160 (Human immunodeficiency virus type 1 group M subtype B)
- Construct: expressed in transfected cells; host or cells: NL-TOE donor cells (target cells: HeLa C14)
- assay notes: HIV-1 cell fusion assay
- Assay type: cell-based
measure: EC50

The molecule listed as C=C(C)[C@@H]1CC[C@]2(NCCN3CCS(=O)(=O)CC3)CC[C@]3(C)[C@H](CC[C@@H]4[C@@]5(C)CC=C(c6ccc(C(=O)O)cc6)C(C)(C)[C@@H]5CC[C@]43C)[C@@H]12 shows EC50 equal to > 2 µM

The molecule listed as Cc1c(O)cccc1C(=O)N[C@@H](CSc1ccccc1)[C@H](O)CN1C[C@H]2CCCC[C@H]2C[C@H]1C(=O)NC(C)(C)C shows EC50 equal to > 2 µM
